Please go through the items and note down their inhibition.
Target: UniProtKB P29275
Sequence (whole entry): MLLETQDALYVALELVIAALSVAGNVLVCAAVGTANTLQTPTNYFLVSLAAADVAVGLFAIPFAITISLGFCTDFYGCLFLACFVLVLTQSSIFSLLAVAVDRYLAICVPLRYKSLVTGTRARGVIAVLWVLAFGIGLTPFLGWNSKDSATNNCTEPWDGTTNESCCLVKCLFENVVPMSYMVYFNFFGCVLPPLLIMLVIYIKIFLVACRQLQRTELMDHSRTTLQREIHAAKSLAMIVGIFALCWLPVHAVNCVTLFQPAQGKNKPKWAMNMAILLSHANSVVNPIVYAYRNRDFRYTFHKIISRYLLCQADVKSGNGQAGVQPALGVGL
Experiment: Displacement of [3H]PSB-603 from human adenosine A2B receptor relative to control
Set-up: concentration or dose not given beside the values
Details: concentration not given here
One number for each entry, in %.

Solved cases (10 shown):
The measured inhibition associated with Cn1c(=O)c2c(nc3n2CCCN3CCc2ccc(Cl)cc2)n(C)c1=O reads 8

Measured inhibition, Cn1c(=O)c2c(nc3n2CCCN3c2cccc(Cl)c2)n(C)c1=O : -4

So, Cn1c(=O)c2c(nc3n2CCCN3Cc2cc(Cl)cc(Cl)c2)n(C)c1=O ? Its inhibition was 4

Looking up Cn1c(=O)c2c(nc3n2CCCN3CC(=O)N2CCN(Cc3ccc(C(F)(F)F)cc3)CC2)n(C)c1=O , I found its inhibition recorded as 2

Form: molecule = C#CCn1c(=O)c2c(nc3n2CCCN3C2CCN(Cc3ccccc3)CC2)n(C)c1=O ; inhibition = -2

Entry C#CCn1c(=O)c2c(nc3n2CCCN3c2ccc(F)cc2)n(C)c1=O — recorded inhibition = 7

// field: inhibition; key: CCn1c(=O)c2c(nc3n2CCCN3CCc2ccc(OC)cc2)n(CC)c1=O ; value = 29

// Cn1c(=O)c2c(nc3n2CCCN3CC(=O)N2CCN(Cc3ccccc3)CC2)n(C)c1=O : inhibition value = -7

Entry C#CCn1c(=O)c2c(nc3n2CCCN3CCc2ccc(O)cc2)n(C)c1=O , inhibition reported as 12

The value of inhibition measured for the molecule CCn1c(=O)c2c(nc3n2CCCN3c2cccc(OC)c2)n(CC)c1=O turned out to be 21

# map each molecule to its inhibition
1. Cn1c(=O)c2c(nc3n2CCCN3CCc2cccc(Cl)c2)n(C)c1=O
2. CCn1c(=O)c2c(nc3n2CCCN3c2ccc(F)cc2)n(CC)c1=O
3. C#CCn1c(=O)c2c(nc3n2CCCN3c2cc(OC)cc(OC)c2)n(C)c1=O
4. C#CCn1c(=O)c2c(nc3n2CCCN3CC2CCCO2)n(C)c1=O (stereo not drawn)
5. C#CCn1c(=O)c2c(nc3n2CCCN3Cc2cccc(OC)c2)n(C)c1=O
6. CCCn1c(=O)c2c(nc3n2CCCN3CCC(=O)N2CCN(Cc3ccc(Cl)cc3)CC2)n(CCC)c1=O

Reply |
[1, 11, 9, 6, 8, -4]

Hi team, please reply with inhibition for each item in this list.
1. CCn1c(=O)c2c(nc3n2CCCN3C2CCCCC2)n(CC)c1=O
2. Cn1c(=O)c2c(nc3n2CCCN3c2ccc(Cl)c(Cl)c2)n(C)c1=O
3. Cn1c(=O)c2c(nc3n2CCCN3CCc2ccc(Cl)c(Cl)c2)n(C)c1=O
4. CCCn1c(=O)c2c(nc3n2CCCN3CC(=O)N2CCN(Cc3ccc(OC)cc3)CC2)n(CCC)c1=O
5. COc1ccc(CN2CCN(C(=O)CN3CCCn4c3nc3c4c(=O)n(C)c(=O)n3C)CC2)cc1
6. Cn1c(=O)c2c(nc3n2CCCN3Cc2cccc(Cl)c2)n(C)c1=O

Reply |
[3, 3, 10, 4, -8, 10]

###

target: MAO-A (amine oxidase [flavin-containing] A) (Homo sapiens); test: Inhibition of human MAO-A at 10 uM relative to control
Sequence (P21397 whole entry): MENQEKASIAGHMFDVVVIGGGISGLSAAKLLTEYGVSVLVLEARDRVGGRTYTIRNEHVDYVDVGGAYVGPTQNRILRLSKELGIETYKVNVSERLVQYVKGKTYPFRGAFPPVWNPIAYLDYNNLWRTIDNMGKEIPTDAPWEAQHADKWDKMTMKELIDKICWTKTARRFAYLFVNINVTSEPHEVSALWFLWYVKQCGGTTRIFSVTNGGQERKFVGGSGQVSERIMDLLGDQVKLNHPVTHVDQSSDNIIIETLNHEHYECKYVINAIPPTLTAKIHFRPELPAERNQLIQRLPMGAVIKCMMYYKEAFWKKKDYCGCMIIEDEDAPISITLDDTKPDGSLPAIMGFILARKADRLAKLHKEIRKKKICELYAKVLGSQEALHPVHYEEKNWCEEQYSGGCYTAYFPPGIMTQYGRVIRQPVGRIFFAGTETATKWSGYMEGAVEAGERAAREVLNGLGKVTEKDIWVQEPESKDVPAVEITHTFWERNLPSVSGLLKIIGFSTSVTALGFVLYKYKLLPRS
Outcome measure: inhibition at 10 µM (%)
One number for each entry, in %.

Here are 4 molecules together with their reported answers.
The molecule listed as CCn1c(=O)c2c(nc3n2CCCN3CCc2ccccc2OC)n(CC)c1=O shows inhibition at 10 µM equal to 28

According to the records, this molecule CCn1c(=O)c2c(nc3n2CCCN3c2ccc(O)cc2)n(CC)c1=O displays inhibition at 10 µM of 11

// Cn1c(=O)c2c(nc3n2CCCN3CC(=O)N2CCN(Cc3ccc(C(F)(F)F)cc3)CC2)n(C)c1=O : inhibition at 10 µM value = 6

Kindly note the recorded inhibition at 10 µM for Cn1c(=O)c2c(nc3n2CCCN3Cc2ccc(Cl)c(Cl)c2)n(C)c1=O , which is 10

Each molecule below has a reported value. Please supply its inhibition at 10 µM.
1. CCn1c(=O)c2c(nc3n2CCCN3c2cccc(OC)c2)n(CC)c1=O
2. Cn1c(=O)c2c(nc3n2CCCN3CC(=O)N2CCN(Cc3ccccc3)CC2)n(C)c1=O
3. Cn1c(=O)c2c(nc3n2CCCN3CCc2ccc(Cl)cc2)n(C)c1=O
4. C#CCn1c(=O)c2c(ncn2C)n(C)c1=O
5. C#CCn1c(=O)c2c(nc3n2CCCN3Cc2ccc(OC)cc2)n(C)c1=O
6. Cn1c(=O)c2c(nc3n2CCCN3CC(=O)N2CCN(c3ccccc3)CC2)n(C)c1=O
7. Cn1c(=O)c2c(nc3n2CCCN3Cc2ccc(Cl)cc2)n(C)c1=O

Reply |
4
4
4
3
11
1
14

Could I get inhibition at 10 µM for every one of these entries?
1. Cn1c(=O)c2c(nc(/C=C/c3cccc(Cl)c3)n2C)n(C)c1=O
2. C#CCn1c(=O)c2c(nc3n2CCCN3Cc2ccccc2)n(C)c1=O
3. CCn1c(=O)c2c(nc3n2CCCN3C2CCCCC2)n(CC)c1=O
4. Cn1c(=O)c2c(nc3n2CCCN3c2ccc(Cl)cc2)n(C)c1=O
5. Cn1c(=O)c2c(nc3n2CCCN3c2ccc(Cl)c(Cl)c2)n(C)c1=O
6. Cn1c(=O)c2c(nc3n2CCCN3CCc2ccc(Cl)c(Cl)c2)n(C)c1=O
7. Cn1c(=O)c2c(nc3n2CCCN3Cc2cc(Cl)cc(Cl)c2)n(C)c1=O
8. CCCn1c(=O)c2c(nc3n2CCCN3CC(=O)N2CCN(c3ccc(Cl)cc3)CC2)n(CCC)c1=O

Reply |
1: 23; 2: 5; 3: -3; 4: 6; 5: 12; 6: -2; 7: 1; 8: -2

Give one value of inhibition at 10 µM per listed molecule.
1. Cn1c(=O)c2c(nc3n2CCCN3CC(=O)N2CCN(c3ccc(Cl)cc3)CC2)n(C)c1=O
2. C#CCn1c(=O)c2c(nc3n2CCCN3Cc2cccs2)n(C)c1=O

Reply |
1. 13
2. 0

###

Provide the recorded inhibition for the entries that follow.
biological target: UniProtKB P29275; assay: Displacement of [3H]PSB-603 from human adenosine A2B receptor relative to control; design: concentration or dose not given beside the values; conditions: concentration not given here
Answers are plain numbers, in %.

The following compounds each have a reported value; give each one's inhibition.
1. CCn1c(=O)c2c(nc3n2CCCN3CCc2cc(OC)c(OC)c(OC)c2)n(CC)c1=O
2. C#CCn1c(=O)c2c(nc3n2CCCN3CCc2cc(OC)c(OC)c(OC)c2)n(C)c1=O
3. C#CCn1c(=O)c2c(nc3n2CCCN3Cc2ccc(OC)cc2)n(C)c1=O
4. Cn1c(=O)c2c(nc3n2CCCN3CC(=O)N2CCN(c3ccc(Cl)cc3)CC2)n(C)c1=O
5. CCn1c(=O)c2c(nc3n2CCCN3c2ccc(O)cc2)n(CC)c1=O

Reply |
1. 6
2. -2
3. 7
4. -7
5. 22

###

Target: Adenosine receptor A1 (Rattus norvegicus)
Sequence (P25099 whole entry): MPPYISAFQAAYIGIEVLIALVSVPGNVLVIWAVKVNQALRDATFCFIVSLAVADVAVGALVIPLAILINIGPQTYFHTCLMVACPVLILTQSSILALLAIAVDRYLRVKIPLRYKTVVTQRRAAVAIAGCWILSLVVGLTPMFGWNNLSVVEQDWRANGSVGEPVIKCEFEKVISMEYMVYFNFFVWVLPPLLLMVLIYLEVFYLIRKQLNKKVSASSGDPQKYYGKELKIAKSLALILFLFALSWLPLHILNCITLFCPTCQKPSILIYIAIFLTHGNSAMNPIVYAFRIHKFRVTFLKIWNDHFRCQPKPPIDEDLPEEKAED
Assay: Displacement of [3H]CCPA from adenosine A1 receptor in rat brain cortex
Format: tissue-based
Can you tell me Ki for the items I'm about to list?
Numbers only, in µM.

Record excerpt, results attached:
Observed Ki on Adenosine receptor A1 (Rattus norvegicus), entry C#CCn1c(=O)c2c(ncn2C)n(C)c1=O , equals 11

Summary line: C#CCn1c(=O)c2c(nc3n2CCCN3CCc2ccc(O)cc2)n(C)c1=O , Adenosine receptor A1 (Rattus norvegicus), reported Ki = 0.501

The molecule C#CCn1c(=O)c2c(nc3n2CCCN3C2CCC2)n(C)c1=O , when measured on Adenosine receptor A1 (Rattus norvegicus), yielded Ki of 1.07

The reported Adenosine receptor A1 (Rattus norvegicus) Ki of C#CCn1c(=O)c2c(nc3n2CCCN3C2CCCCC2)n(C)c1=O is 0.515

Ki value, target or system Adenosine receptor A1 (Rattus norvegicus), for Cn1c(=O)c2c(nc3n2CCCN3CCc2ccc(Cl)c(Cl)c2)n(C)c1=O : 7.24

Record Ki for all entries; do not skip any.
1. C#CCn1c(=O)c2c(nc3n2CCCN3c2cccc(Br)c2)n(C)c1=O
2. C#CCn1c(=O)c2c(nc3n2CCCN3c2ccc(C(C)C)cc2)n(C)c1=O
3. CCn1c(=O)c2c(nc3n2CCCN3c2cccc(OC)c2)n(CC)c1=O
4. Cn1c(=O)c2c(nc3n2CCCN3CCc2cccc(Cl)c2)n(C)c1=O
5. C#CCn1c(=O)c2c(nc3n2CCCN3CCc2ccccc2)n(C)c1=O

Reply |
1. 0.313
2. 5.22
3. 1.24
4. 1.76
5. 0.632

For every item in the list below, what is its measured Ki?
1. C#CCn1c(=O)c2c(nc3n2CCCN3c2ccc(F)cc2)n(C)c1=O
2. C#CCn1c(=O)c2c(nc3n2CCCN3Cc2ccc(OC)cc2)n(C)c1=O
3. Cn1c(=O)c2c(nc3n2CCCN3Cc2cc(Cl)cc(Cl)c2)n(C)c1=O
4. C#CCn1c(=O)c2c(nc3n2CCCN3Cc2cccc(OC)c2)n(C)c1=O

Reply |
1. 1.19
2. 0.555
3. 0.165
4. 0.227

Reference source for all entries: ChEMBL document CHEMBL3091303
